Listed here are compounds together with their documented IC50.
# TEST SYSTEM: ALK (G1202R) (Homo sapiens (Human), UniProt Q9UM73, G1202R)
# Sequence (Q9UM73 19-1620 G1202R): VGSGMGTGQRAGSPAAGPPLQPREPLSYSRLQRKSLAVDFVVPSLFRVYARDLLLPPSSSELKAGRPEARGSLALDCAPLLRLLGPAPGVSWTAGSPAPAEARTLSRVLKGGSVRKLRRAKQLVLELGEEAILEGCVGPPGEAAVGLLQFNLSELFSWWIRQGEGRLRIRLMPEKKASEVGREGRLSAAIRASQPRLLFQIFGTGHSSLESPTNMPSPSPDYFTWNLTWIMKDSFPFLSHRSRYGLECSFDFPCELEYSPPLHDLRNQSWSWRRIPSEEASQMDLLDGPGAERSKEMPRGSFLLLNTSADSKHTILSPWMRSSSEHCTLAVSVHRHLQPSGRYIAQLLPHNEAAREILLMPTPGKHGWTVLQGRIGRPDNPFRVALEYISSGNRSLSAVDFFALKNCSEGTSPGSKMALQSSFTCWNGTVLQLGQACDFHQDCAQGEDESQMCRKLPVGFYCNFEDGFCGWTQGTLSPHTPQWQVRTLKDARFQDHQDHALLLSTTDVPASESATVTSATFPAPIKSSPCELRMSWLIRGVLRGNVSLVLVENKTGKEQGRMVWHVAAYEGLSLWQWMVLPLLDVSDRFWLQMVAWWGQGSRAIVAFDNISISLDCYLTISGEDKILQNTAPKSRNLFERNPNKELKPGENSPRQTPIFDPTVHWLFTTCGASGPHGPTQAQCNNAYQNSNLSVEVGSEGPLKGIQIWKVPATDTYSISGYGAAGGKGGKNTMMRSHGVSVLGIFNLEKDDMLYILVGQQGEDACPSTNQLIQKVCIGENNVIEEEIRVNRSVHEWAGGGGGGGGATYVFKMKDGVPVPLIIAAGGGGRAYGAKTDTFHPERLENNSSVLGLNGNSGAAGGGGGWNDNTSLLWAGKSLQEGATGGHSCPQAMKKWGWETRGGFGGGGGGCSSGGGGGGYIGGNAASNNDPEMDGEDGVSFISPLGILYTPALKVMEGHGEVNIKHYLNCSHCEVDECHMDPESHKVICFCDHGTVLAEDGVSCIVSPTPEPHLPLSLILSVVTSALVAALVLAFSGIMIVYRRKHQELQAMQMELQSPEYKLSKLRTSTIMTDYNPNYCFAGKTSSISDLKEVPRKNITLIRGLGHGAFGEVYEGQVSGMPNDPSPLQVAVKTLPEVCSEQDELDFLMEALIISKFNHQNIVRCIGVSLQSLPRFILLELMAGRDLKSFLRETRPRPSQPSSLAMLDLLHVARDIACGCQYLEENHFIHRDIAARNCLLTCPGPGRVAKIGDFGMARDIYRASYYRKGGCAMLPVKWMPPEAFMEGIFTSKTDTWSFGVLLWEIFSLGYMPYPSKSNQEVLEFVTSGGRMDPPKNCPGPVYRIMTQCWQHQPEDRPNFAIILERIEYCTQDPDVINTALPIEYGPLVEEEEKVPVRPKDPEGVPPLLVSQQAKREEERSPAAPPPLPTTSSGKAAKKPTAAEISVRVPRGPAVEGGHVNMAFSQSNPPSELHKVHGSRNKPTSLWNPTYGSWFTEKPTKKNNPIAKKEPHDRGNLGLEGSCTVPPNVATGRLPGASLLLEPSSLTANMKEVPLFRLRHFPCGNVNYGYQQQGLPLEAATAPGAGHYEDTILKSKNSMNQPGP
# ASSAY OVERVIEW: Radio-tagged HotSpot kinase assay, ALK (G1202R)
# Assay type: biochemical

C[C@@H](Nc1ccn2ncc(C(=O)NOCCO)c2n1)c1cc(F)cc(F)c1F [Example 13]    50 to 500 nM
C[C@@H](Nc1ccn2ncc(C3=NOCCN3)c2n1)c1cc(F)cc(C(F)(F)F)c1F [Example 19]    50 to 500 nM

Bench note: what IC50 did COc1ccc(F)cc1[C@@H](C)Nc1ccn2ncc(NC3=NC(C)(C)CN3)c2n1 [Example 12] show?
5 to 50 nM

Same lookup for COc1ccc(F)cc1[C@@H](C)Nc1ccn2ncc(NC3=NC(C)(C)CO3)c2n1 [Example 1] , please.
5 to 50 nM

Same lookup for C[C@@H](Nc1ccn2ncc(OC3=NCC(C)(C)N3)c2n1)c1cc(F)cc(F)c1F [Example 15] , please.
50 to 500 nM

Same lookup for C[C@@H](Nc1ccn2ncc(C3=NOCC(C)(C)N3)c2n1)c1cc(F)cc(F)c1F [Example 4] , please.
5 to 50 nM

Same lookup for C[C@@H](Nc1ccn2ncc(C3=NC(=O)C(C)(C)N3)c2n1)c1cc(F)cc(F)c1F [Example 8] , please.
5 to 50 nM

Same lookup for C[C@@H](Nc1ccn2ncc(C3=NC(=O)C(C)(C)N3)c2n1)c1cc(F)cnc1OC(F)(F)F [Example 25] , please.
5 to 50 nM

Same lookup for COc1ncc(F)cc1[C@@H](C)Nc1ccn2ncc(C3=NC(=O)C(C)(C)N3)c2n1 [Example 10] , please.
5 to 50 nM

Same lookup for C[C@@H](Nc1ccn2ncc(C3=NOCCN3)c2n1)c1cc(F)ccc1OC(F)(F)F [Example 26] , please.
5 to 50 nM

Same lookup for COc1ccc(F)cc1[C@@H](C)Nc1ccn2ncc(OC3=NC(C)(C)CN3)c2n1 [Example 14] , please.
50 to 500 nM

Same lookup for COc1c(F)cc(F)cc1[C@@H](C)Nc1ccn2ncc(NC3=NC(C)(C)CO3)c2n1 [Example 18] , please.
50 to 500 nM
